# tested target: Estrogen receptor (Homo sapiens)
# Sequence (P03372 whole entry): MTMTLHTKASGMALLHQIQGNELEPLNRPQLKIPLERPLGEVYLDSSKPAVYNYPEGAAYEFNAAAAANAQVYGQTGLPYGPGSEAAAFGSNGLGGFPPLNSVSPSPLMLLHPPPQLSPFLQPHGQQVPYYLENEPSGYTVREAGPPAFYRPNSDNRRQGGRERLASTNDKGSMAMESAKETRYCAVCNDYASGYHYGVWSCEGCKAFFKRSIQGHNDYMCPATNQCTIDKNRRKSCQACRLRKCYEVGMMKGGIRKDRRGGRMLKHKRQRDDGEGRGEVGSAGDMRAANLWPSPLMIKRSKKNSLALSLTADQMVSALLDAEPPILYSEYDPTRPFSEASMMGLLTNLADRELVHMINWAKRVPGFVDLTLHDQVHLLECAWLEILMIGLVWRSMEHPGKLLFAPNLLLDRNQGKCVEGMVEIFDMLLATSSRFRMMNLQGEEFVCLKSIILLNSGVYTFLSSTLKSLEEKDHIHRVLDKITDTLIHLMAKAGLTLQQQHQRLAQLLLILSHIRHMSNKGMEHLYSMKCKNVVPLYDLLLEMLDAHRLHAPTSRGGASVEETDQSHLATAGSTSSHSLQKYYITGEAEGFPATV
This listing pairs molecules with measured EC50.
experimental endpoint: EC50

C[C@]12CC[C@@H]3c4ccc(O)cc4CC[C@H]3[C@@H]1CC[C@@]2(O)c1cn(-c2ccc(O)cc2)nn1    > 10 µM
C[C@]12CC[C@@H]3c4ccc(O)cc4CC[C@H]3[C@@H]1CC[C@@]2(O)c1cn(CCO)nn1    > 10 µM
C[C@]12CC[C@]3(C#N)c4ccc(O)cc4CC[C@H]3[C@@H]1CC[C@@H]2O    > 5 µM
C[C@]12CC[C@@H]3c4ccc(O)cc4CC[C@H]3[C@@H]1CC[C@@]2(O)c1cn(-c2ccccc2)nn1    > 1 µM
C[C@]12CC[C@]3(C#N)c4ccc(O)cc4CC[C@H]3[C@@H]1CCC2=O    > 10 µM
C[C@]12CC[C@@H]3c4ccc(O)cc4CC[C@H]3[C@@H]1CC[C@@]2(O)c1cn(-c2cccc(O)c2)nn1    > 1 µM
C#C[C@]1(O)CC[C@H]2[C@@H]3CCc4cc(O)ccc4[C@@]3(C#N)CC[C@@]21C    > 10 µM

====

// Estrogen receptor beta (Homo sapiens, UniProt Q92731) EC50 records
experimental endpoint: EC50 (nM)

C#C[C@]1(O)CC[C@H]2[C@@H]3CCc4cc(O)ccc4[C@@]3(C#N)CC[C@@]21C    51
C[C@]12CC[C@]3(C#N)c4ccc(O)cc4CC[C@H]3[C@@H]1CCC2=O    78
C[C@]12CC[C@]3(C#N)c4ccc(O)cc4CC[C@H]3[C@@H]1CC[C@@]2(O)c1cn(CCO)nn1    4400
C[C@]12CC[C@]3(C#N)c4ccc(O)cc4CC[C@H]3[C@@H]1CC[C@@H]2O    0.27
C[C@]12CC[C@@H]3c4ccc(O)cc4CC[C@H]3[C@@H]1CC[C@@]2(O)c1cn(-c2cccc(O)c2)nn1    12
C[C@]12CC[C@@H]3c4ccc(O)cc4CC[C@H]3[C@@H]1CC[C@@]2(O)c1cn(-c2ccc(O)cc2)nn1    0.65
C[C@]12CC[C@@H]3c4ccc(O)cc4CC[C@H]3[C@@H]1CC[C@@]2(O)c1cn(CCO)nn1    50

====

# tested target: Estrogen receptor beta (Homo sapiens, UniProt Q92731)
# Sequence (Q92731 whole entry): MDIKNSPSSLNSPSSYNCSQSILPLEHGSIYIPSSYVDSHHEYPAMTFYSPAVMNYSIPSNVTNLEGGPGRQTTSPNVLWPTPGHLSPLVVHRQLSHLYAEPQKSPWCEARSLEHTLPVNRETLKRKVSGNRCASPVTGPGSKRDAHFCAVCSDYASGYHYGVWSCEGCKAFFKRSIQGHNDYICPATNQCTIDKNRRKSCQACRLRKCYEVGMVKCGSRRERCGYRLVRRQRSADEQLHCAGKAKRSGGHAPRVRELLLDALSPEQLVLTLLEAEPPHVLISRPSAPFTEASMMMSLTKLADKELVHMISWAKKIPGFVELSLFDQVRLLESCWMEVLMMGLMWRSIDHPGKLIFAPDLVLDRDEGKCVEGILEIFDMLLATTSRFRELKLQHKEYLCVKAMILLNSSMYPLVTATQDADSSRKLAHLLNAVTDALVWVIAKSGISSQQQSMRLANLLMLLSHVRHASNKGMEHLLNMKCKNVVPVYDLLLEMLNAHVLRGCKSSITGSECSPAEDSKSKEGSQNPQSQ
pEC50: −log10 of the molar value.
Rule: yes (1) for pEC50 not less than 8, no (0) for anything less.

C[C@]12CC[C@]3(C#N)c4ccc(O)cc4CC[C@H]3[C@@H]1CC[C@@H]2O    yes (1)
C[C@]12CC[C@@H]3c4ccc(O)cc4CC[C@H]3[C@@H]1CC[C@@]2(O)c1cn(-c2ccc(O)cc2)nn1    yes (1)
C[C@]12CC[C@@H]3c4ccc(O)cc4CC[C@H]3[C@@H]1CC[C@@]2(O)c1cn(-c2cccc(O)c2)nn1    no (0)

====

# tested target: UniProtKB Q92731
A collection of molecules and their measured EC50
experimental endpoint: EC50

C[C@]12CC[C@]3(C#N)c4ccc(O)cc4CC[C@H]3[C@@H]1CCC2=O    > 5 µM
C[C@]12CC[C@]3(C#N)c4ccc(O)cc4CC[C@H]3[C@@H]1CC[C@@H]2O    > 0.025 µM
C#C[C@]1(O)CC[C@H]2[C@@H]3CCc4cc(O)ccc4[C@@]3(C#N)CC[C@@]21C    > 10 µM
C[C@]12CC[C@@H]3c4ccc(O)cc4CC[C@H]3[C@@H]1CC[C@@]2(O)c1cn(-c2cccc(O)c2)nn1    > 10 µM
C[C@]12CC[C@@H]3c4ccc(O)cc4CC[C@H]3[C@@H]1CC[C@@]2(O)c1cn(-c2ccc(O)cc2)nn1    > 10 µM
C[C@]12CC[C@@H]3c4ccc(O)cc4CC[C@H]3[C@@H]1CC[C@@]2(O)c1cn(CCO)nn1    > 10 µM

====

# tested target: Estrogen receptor (Homo sapiens, UniProt P03372)
pEC50: −log10 of the molar value.
compounds and their reported pEC50
experimental endpoint: pEC50

C[C@]12CC[C@@H]3c4ccc(O)cc4CC[C@H]3[C@@H]1CC[C@@]2(O)c1cn(-c2ccccc2)nn1    8.30
C[C@]12CC[C@@H]3c4ccc(O)cc4CC[C@H]3[C@@H]1CC[C@@]2(O)c1cn(CCO)nn1    6.83
C[C@]12CC[C@@H]3c4ccc(O)cc4CC[C@H]3[C@@H]1CC[C@@]2(O)c1cn(-c2ccc(O)cc2)nn1    9.06
C#C[C@]1(O)CC[C@H]2[C@@H]3CCc4cc(O)ccc4[C@@]3(C#N)CC[C@@]21C    7.66
C[C@]12CC[C@]3(C#N)c4ccc(O)cc4CC[C@H]3[C@@H]1CC[C@@H]2O    9.42
C[C@]12CC[C@]3(C#N)c4ccc(O)cc4CC[C@H]3[C@@H]1CCC2=O    7.06
C[C@]12CC[C@@H]3c4ccc(O)cc4CC[C@H]3[C@@H]1CC[C@@]2(O)c1cn(-c2cccc(O)c2)nn1    7.17

====

Quick record: EC50, Estrogen receptor beta (Homo sapiens).
experimental endpoint: EC50 (nM)

C[C@]12CC[C@@H]3c4ccc(O)cc4CC[C@H]3[C@@H]1CC[C@@]2(O)c1cn(CCO)nn1    16
C[C@]12CC[C@]3(C#N)c4ccc(O)cc4CC[C@H]3[C@@H]1CCC2=O    9
C#C[C@]1(O)CC[C@H]2[C@@H]3CCc4cc(O)ccc4[C@@]3(C#N)CC[C@@]21C    14

meta.source: ChEMBL document CHEMBL4725405
